- system: T1, epitope tag peptide SRLEEELRRRLTE (SEQ ID NO: 2), biotinylated (also: biotinylated (site and linker not given here))
- T1 construct: Rationally designed peptide; also called ALFA-tag
- T1 peptide: SRLEEELRRRLTE
- protocolDetails: BLI (Octet), biotinylated peptide on SAX2.0 biosensors, 1:1 global fit
Ends that are not written are not given here.
metricName: koff (s⁻¹)
Give bare numbers, in s⁻¹.

Please review the following examples before continuing.
[[record]]
binder = "Variant 8 of humanized NbALFA (VHH, Further engineered humanized variant; Any tag on the tested construct is not described) VHH: EVQLVESGGGLVQPGGSLRLSCAASGVTISALNAMAMGWFRQAPGKRREMVAAVSERGNAMYRESVQGRFTISRDNAKRMVYLQMNSLRAEDTAVYYCHVLEDRVDSFHDYWGQGTQVTVSS"
valueunits = "s⁻¹"
valuereported = 0.000263

[[record]]
binder = "Variant 10 of humanized NbALFA (VHH) VHH: EVQLVESGGGLVQPGGSLRLSCAASGVTISALNAMAMGWYRQAPGKRREMVAAVSERGNTMYRESVQGRFTISRDNAKRMVYLQMNSLRAEDTAVYYCHVLEDRVDSFHDYWGQGTQVTVSS"
valueunits = "s⁻¹"
valuereported = 0.000147


Next:
binder Variant 14 of humanized NbALFA (VHH) VHH: EVQLVESGGGLVQPGGSLRLSCAASGVTISALNAMAMGWYRQAPGKRREMVAAVSERGNAMYRESVKGRFTISRDNSKNTLYLQMNSLRAEDTAVYYCHVLEDRVDSFHDYWGQGTQVTVSS , koff observed: 0.00013
